- EXPERIMENTAL_TARGET: human MET ECD mutant H (mutations 2, 4) (human) (UniProt P08581)
- ASSAY_PROCEDURE: ELISA, MET ECD mutant in solid phase, mAb 0-50 nM
Param label: returns criterion met when % binding (EMAX) compared to WT MET < 40%, returns criterion not met otherwise, including exact equality.

Ask | # TODO verify % binding (EMAX) compared to WT MET < 40% strictly for this binder: chimeric llama-human IgG1 mAb 71A3 (antibody, V domains shown) VH: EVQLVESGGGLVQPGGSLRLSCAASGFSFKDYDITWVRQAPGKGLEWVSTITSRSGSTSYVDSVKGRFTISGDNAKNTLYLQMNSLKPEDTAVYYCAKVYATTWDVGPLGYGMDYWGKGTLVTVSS VL: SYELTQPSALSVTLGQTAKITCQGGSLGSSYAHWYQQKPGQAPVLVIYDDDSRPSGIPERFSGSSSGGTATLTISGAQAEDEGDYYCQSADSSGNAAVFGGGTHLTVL
Reply | criterion not met

Ask | Consider chimeric llama-human IgG1 mAb 71D4 (antibody, V domains shown) VH: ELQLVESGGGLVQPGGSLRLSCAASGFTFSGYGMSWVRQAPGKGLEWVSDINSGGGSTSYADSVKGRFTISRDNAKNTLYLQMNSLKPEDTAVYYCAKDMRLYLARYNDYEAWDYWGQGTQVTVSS VL: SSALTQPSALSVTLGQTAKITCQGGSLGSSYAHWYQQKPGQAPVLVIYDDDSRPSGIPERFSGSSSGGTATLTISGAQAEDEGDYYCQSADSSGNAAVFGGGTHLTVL . Does its % binding (EMAX) compared to WT MET lie strictly below 40%?
Reply | criterion not met

Ask | # TODO verify % binding (EMAX) compared to WT MET < 40% strictly for this binder: chimeric llama-human IgG1 mAb 71D6 (antibody, V domains shown) VH: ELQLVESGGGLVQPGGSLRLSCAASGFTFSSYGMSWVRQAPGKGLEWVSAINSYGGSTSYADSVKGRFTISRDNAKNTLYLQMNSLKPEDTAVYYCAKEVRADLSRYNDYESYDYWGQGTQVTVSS VL: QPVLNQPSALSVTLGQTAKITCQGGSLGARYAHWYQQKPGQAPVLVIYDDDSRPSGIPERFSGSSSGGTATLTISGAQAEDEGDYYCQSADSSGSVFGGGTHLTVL
Reply | criterion met

Ask | Consider the binder chimeric llama-human IgG1 mAb 71C3 (antibody, V domains shown) VH: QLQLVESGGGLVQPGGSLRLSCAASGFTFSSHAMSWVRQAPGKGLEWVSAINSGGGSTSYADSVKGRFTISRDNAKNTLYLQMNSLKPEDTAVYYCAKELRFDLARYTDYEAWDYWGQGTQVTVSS VL: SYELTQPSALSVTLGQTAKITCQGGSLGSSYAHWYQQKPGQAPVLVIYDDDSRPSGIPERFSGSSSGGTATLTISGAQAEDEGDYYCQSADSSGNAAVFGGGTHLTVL . Is its % binding (EMAX) compared to WT MET strictly less than 40%?
Reply | criterion not met
